Listed next: entries and their corresponding IC50 cell viability.
- Tested on: HCT116
- CONDITION SUMMARY: 72 h; ICRF193 200 nM
Where a name gives a salt, the structure may show the parent alone.

{"columns": ["MOLECULE", "IC50 cell viability"],
 "data": [
  ["NS(=O)(=O)c1cc2c(cc1Cl)NC(Cc1ccccc1)NS2(=O)=O (stereo not drawn) [Benzylhydrochlorothiazide]", "> 45.8 µM"],
  ["Cc1ccc(S(=O)(=O)NC(=O)NN2CCCCCC2)cc1 [Tolazamide]", "> 45.8 µM"],
  ["Cc1ncc(C[n+]2csc(CCO)c2C)c(N)n1 [Thiamine hydrochloride]", "> 45.8 µM"]
]}
